Each entry below carries its recorded self-cleavage.
B1: HDV Ribozyme (parent)
chain: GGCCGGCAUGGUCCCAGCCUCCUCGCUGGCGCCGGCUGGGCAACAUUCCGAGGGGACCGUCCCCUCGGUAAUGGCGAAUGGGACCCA

Variants of: B1
Experiment: self-cleavage, relative activity (ratio to wild type); higher = more cleavage; co-transcriptional
Endpoint Label: self-cleavage

[[record]]
variant = "C3G G11C"
endpoint_label = "self-cleavage"
numeric_value = 0.225

[[record]]
variant = "C49G G74C"
endpoint_label = "self-cleavage"
numeric_value = 0.192

[[record]]
variant = "C62A G80U"
endpoint_label = "self-cleavage"
numeric_value = 0.16

[[record]]
variant = "C32G G50U"
endpoint_label = "self-cleavage"
numeric_value = 0.0268

[[record]]
variant = "G6A G67C"
endpoint_label = "self-cleavage"
numeric_value = 0.643

[[record]]
variant = "C63G C64U"
endpoint_label = "self-cleavage"
numeric_value = 0.753

[[record]]
variant = "C4A C58A"
endpoint_label = "self-cleavage"
numeric_value = 0.348

[[record]]
variant = "C21G A87U"
endpoint_label = "self-cleavage"
numeric_value = 0.0723

[[record]]
variant = "C3U G11U"
endpoint_label = "self-cleavage"
numeric_value = 0.138

[[record]]
variant = "A56G G81U"
endpoint_label = "self-cleavage"
numeric_value = 0.332

[[record]]
variant = "A43U G55A"
endpoint_label = "self-cleavage"
numeric_value = 0.537

[[record]]
variant = "C7U G67U"
endpoint_label = "self-cleavage"
numeric_value = 0.684

[[record]]
variant = "G10C G54U"
endpoint_label = "self-cleavage"
numeric_value = 0.897

[[record]]
variant = "C26U G31C"
endpoint_label = "self-cleavage"
numeric_value = 0.542

[[record]]
variant = "G5A C21G"
endpoint_label = "self-cleavage"
numeric_value = 0.0811

[[record]]
variant = "U12A C15U"
endpoint_label = "self-cleavage"
numeric_value = 0.138

[[record]]
variant = "C24A G40U"
endpoint_label = "self-cleavage"
numeric_value = 0.41

[[record]]
variant = "C19G U37G"
endpoint_label = "self-cleavage"
numeric_value = 0.111

[[record]]
variant = "G52A C63A"
endpoint_label = "self-cleavage"
numeric_value = 0.774

[[record]]
variant = "G29A U65G"
endpoint_label = "self-cleavage"
numeric_value = 0.166

[[record]]
variant = "G39A U47A"
endpoint_label = "self-cleavage"
numeric_value = 0.356

[[record]]
variant = "G1C G28U"
endpoint_label = "self-cleavage"
numeric_value = 0.107

[[record]]
variant = "C32U G52C"
endpoint_label = "self-cleavage"
numeric_value = 0.751

[[record]]
variant = "C4U C75A"
endpoint_label = "self-cleavage"
numeric_value = 0.128

[[record]]
variant = "C48G C57A"
endpoint_label = "self-cleavage"
numeric_value = 0.798

[[record]]
variant = "G59U A77G"
endpoint_label = "self-cleavage"
numeric_value = 0.847

[[record]]
variant = "U72G G74C"
endpoint_label = "self-cleavage"
numeric_value = 0.237

[[record]]
variant = "A16U A70U"
endpoint_label = "self-cleavage"
numeric_value = 0.764

[[record]]
variant = "C36A C75A"
endpoint_label = "self-cleavage"
numeric_value = 0.175

[[record]]
variant = "G55C C63G"
endpoint_label = "self-cleavage"
numeric_value = 0.888

[[record]]
variant = "A16U G80U"
endpoint_label = "self-cleavage"
numeric_value = 0.41

[[record]]
variant = "C7U G76U"
endpoint_label = "self-cleavage"
numeric_value = 0.755

[[record]]
variant = "G10C A42G"
endpoint_label = "self-cleavage"
numeric_value = 0.151

[[record]]
variant = "A43C C57U"
endpoint_label = "self-cleavage"
numeric_value = 0.491

[[record]]
variant = "C22A C41G"
endpoint_label = "self-cleavage"
numeric_value = 0.175

[[record]]
variant = "G39C G82A"
endpoint_label = "self-cleavage"
numeric_value = 0.0308

[[record]]
variant = "G53A G67A"
endpoint_label = "self-cleavage"
numeric_value = 1.02

[[record]]
variant = "U27A G76A"
endpoint_label = "self-cleavage"
numeric_value = 0.997

